# ASSAY_COMMENT: Acute toxicity in rodents, rat
# ASSAY_CONTEXT: in vivo, po, read-out: LD50 (95% fiducial limits)
# Text: Studies have been carried out in two animal species and following two different administration routes. The following values of LD50 (mg/kg) and of the 95% fiducial limits have been obtained: rat, oral route: 511 (356-732); mouse, oral route: 497 (323-762); rat, intraperitoneal route: 237 (156-359); mouse, intraperitoneal route: 253 (171-374).
VALUE_KIND: LD50 (mg/kg)
Write the answer as a number in mg/kg, unit excluded.

# input // returns reported LD50 for input `O=C(Cc1ccccc1Nc1c(Cl)cccc1Cl)OCCCCO[N+](=O)[O-]`
# output 511
